FYI, the data here is from PubChem BioAssay AID588342.

target: Luciferin 4-monooxygenase (Photinus pyralis); assay: qHTS profiling assay for firefly luciferase inhibitor/activator using purifed enzyme and Km concentrations of substrates (counterscreen for miR-21 project); details: purified FLuc, luminescence inhibition; series mostly up to 57.5 µM; also: nearly all actives have a fitted effect of over 55% in size
In all, about 360,000 compounds went through this assay and about 25,000 (6.9%) were called active. Inconclusive results (about 9%) are left out. Calls follow the shape of the dose curve; as a rule, active = well fitted inhibition curve with a large enough effect; inconclusive = small, poorly fitted or top-dose-only effect; inactive = flat fitted curve, though single readings scatter. The full list was thinned out, with actives kept by preference.
// classify into 1.0 (active), 0.0 (inactive)

{"Molecule": "CCOC(=O)C(=O)Nc1nc(-c2ccccc2)c(CC)s1", "Assigned Label": 0.0}
{"Molecule": "Brc1ccc2nc(N3CCCC3)sc2c1", "Assigned Label": 1.0}

I'd appreciate the recorded outcome for COCCN(C(=O)CSCc1ccc(C)cc1)c1c(N)n(CC(C)C)c(=O)[nH]c1=O from this test.
0.0

Also need C/C(=N\NC(=O)c1ccccc1F)c1ccccn1 , thanks.
1.0

# repeat for COc1ccc(NC(=O)C2C3CCC(O3)C2C(=O)O)cc1OC (stereo not given)
0.0

---

molecular target: Luciferin 4-monooxygenase (Photinus pyralis); assay: qHTS profiling assay for firefly luciferase inhibitor/activator using purifed enzyme and Km concentrations of substrates (counterscreen for miR-21 project); details: purified FLuc, luminescence inhibition; series mostly up to 57.5 µM; also: nearly all actives have a fitted effect of over 55% in size
About 25,000 (6.9%) of roughly 360,000 compounds were called active. Not shown: some 9% with an inconclusive outcome. The call rests on the fitted dose curve; in most records, active means well fitted inhibition curve with a large enough effect; inconclusive means small, poorly fitted or top-dose-only effect; inactive means flat fitted curve, though single readings scatter. The sample holds actives, similar compounds and a random draw of the others, so the mix is not that of the screen.
Return exactly one item of active, inactive

The examples below pair each entry with its known result.
{"Compound": "COc1ccc(/C=C/CN2CCN(Cc3ccc(C)cc3)C(CCO)C2)cc1 (stereo not given)", "Assigned Label": "inactive"}
{"Compound": "Cc1ccc(-c2cn3cc([N+](=O)[O-])ccc3n2)cc1", "Assigned Label": "active"}
{"Compound": "COc1ccc(/C=C/c2noc(-c3ccccc3OC(C)=O)n2)cc1", "Assigned Label": "active"}
{"Compound": "CC(C)CCNC(=O)c1ccc2c(Cl)c3c(nc2c1)CCC3", "Assigned Label": "active"}
{"Compound": "COc1ccc(-c2cc(C(F)(F)F)nc(SCC(=O)N(C)Cc3ccccc3)n2)cc1OC", "Assigned Label": "inactive"}
{"Compound": "CCC(=O)N1c2ccccc2CC1C(=O)N1CCN(c2cccc(OC)c2)CC1 (stereo not given)", "Assigned Label": "inactive"}
{"Compound": "O=C(CCN1CCCO1)N1CCCC(N2CCN(c3cccc(C(F)(F)F)c3)CC2)C1 (stereo not given)", "Assigned Label": "inactive"}
{"Compound": "Cc1ccc2nc(SCC(=O)NC3CCCC3)[nH]c2c1", "Assigned Label": "inactive"}

For Cc1ccc(-c2cn3cc(C)ccc3n2)cc1 , what call appears in the results of this test?
active

Repeat with Cc1ccc(C(=O)Cn2cc([N+](=O)[O-])nc2C)cc1
inactive

And the next one, Cc1cc(F)ccc1S(=O)(=O)Nc1ccc(C(=O)N(C)Cc2ccco2)cc1 ?
inactive

---

molecular target: Luciferin 4-monooxygenase (Photinus pyralis); assay: qHTS profiling assay for firefly luciferase inhibitor/activator using purifed enzyme and Km concentrations of substrates (counterscreen for miR-21 project); conditions: purified FLuc, luminescence inhibition; series mostly up to 57.5 µM; also: nearly all actives have a fitted effect of over 55% in size
The whole screen tested about 360,000 compounds, of which about 25,000 (6.9%) were called active. Roughly 9% stayed inconclusive and do not appear here. Calls come from the whole dose curve; as a rule, active = well fitted inhibition curve with a large enough effect; inconclusive = small, poorly fitted or top-dose-only effect; inactive = flat fitted curve, though single readings scatter. The entries come from a sample that favours actives as a whole.
// classify into Yes (active), No (inactive)

{"Compound": "COc1cccc(/C=C/c2ccc3ccccc3n2)c1OC(C)=O", "Subject Of Test": "Luciferin 4-monooxygenase (Photinus pyralis)", "Assigned Label": "Yes"}
{"Compound": "Nc1cc(C(F)(F)F)ccc1N1CCOCC1", "Subject Of Test": "Luciferin 4-monooxygenase (Photinus pyralis)", "Assigned Label": "No"}
{"Compound": "Cc1ccc(NC(=O)c2cccs2)cc1S(=O)(=O)N(C)C", "Subject Of Test": "Luciferin 4-monooxygenase (Photinus pyralis)", "Assigned Label": "Yes"}
{"Compound": "Cc1ccc(C(=O)Nc2ccc(C)c(S(=O)(=O)N(C)C)c2)s1", "Subject Of Test": "Luciferin 4-monooxygenase (Photinus pyralis)", "Assigned Label": "Yes"}
{"Compound": "Cc1ccc(C(=O)Nc2ccc(C(=O)O)cc2)cc1S(=O)(=O)Nc1ccccc1", "Subject Of Test": "Luciferin 4-monooxygenase (Photinus pyralis)", "Assigned Label": "No"}

// return assay outcome for CC(C)(CNC(=O)CNC(=O)C1CCCCC1)N1CCOCC1
No

# iterate: CCn1c2ccccc2c2nnc(N3CCN(c4cc(C)ccc4C)CC3)nc21
No

What do we get for O=C(O)CCn1c(O)c(C=C2N=c3ccccc3=N2)sc1=S ?
Yes

Request: CCOc1ccccc1/C=N/Nc1nc2ccccc2o1
No

Note, next up: COc1ccc(CCC(=O)OCC(=O)Nc2ccc(C)c(S(=O)(=O)N(C)C)c2)cc1
No

And then COc1c(C=O)c(CCN(C)C(=O)c2ccc(F)cc2)cc2c1OCO2 , what is it?
No

Next up: Cc1ccccc1C(=O)Nc1sc2c(c1C(=O)N1CCC(C)CC1)CCCC2
No
